# assayed.target: vanilloid receptor 1 (VR1/TRPV1 receptor) (Homo sapiens)
# Construct: expressed in transfected cells; host or cells: CHO K1 cells (ECACC), stably transfected
# Sequence (Q8NER1 whole entry): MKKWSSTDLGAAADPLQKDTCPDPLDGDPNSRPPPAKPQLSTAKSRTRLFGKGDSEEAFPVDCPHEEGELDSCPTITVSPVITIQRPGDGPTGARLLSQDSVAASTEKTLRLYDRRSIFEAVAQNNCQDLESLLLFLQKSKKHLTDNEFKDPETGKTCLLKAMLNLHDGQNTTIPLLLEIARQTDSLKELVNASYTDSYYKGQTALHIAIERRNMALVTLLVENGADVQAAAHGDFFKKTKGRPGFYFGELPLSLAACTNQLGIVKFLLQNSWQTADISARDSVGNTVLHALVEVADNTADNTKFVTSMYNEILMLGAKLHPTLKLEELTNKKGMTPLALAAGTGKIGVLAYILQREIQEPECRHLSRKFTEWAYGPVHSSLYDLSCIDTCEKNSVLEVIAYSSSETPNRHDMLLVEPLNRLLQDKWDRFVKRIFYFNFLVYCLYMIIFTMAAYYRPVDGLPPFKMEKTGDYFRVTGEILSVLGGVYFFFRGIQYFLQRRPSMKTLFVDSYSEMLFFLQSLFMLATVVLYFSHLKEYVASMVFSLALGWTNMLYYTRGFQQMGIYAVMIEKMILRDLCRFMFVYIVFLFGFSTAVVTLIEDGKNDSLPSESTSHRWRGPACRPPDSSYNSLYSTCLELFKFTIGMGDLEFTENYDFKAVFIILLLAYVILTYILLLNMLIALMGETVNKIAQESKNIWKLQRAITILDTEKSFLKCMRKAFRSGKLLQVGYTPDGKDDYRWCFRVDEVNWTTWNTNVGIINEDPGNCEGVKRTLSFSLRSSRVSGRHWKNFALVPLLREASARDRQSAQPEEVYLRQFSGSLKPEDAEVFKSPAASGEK
# assay.explanation: FLIPR Ca2+ influx assay with CHO K1 cells transfected with the human VR1 gene, capsaicin stimulus
# Assay type: cell-based
# test.context: Cap = capsaicin (100 nM), Ki from IC50 by Cheng-Prusoff, read-out: Ki (human being) [nM] Cap
# Source text: […]
measured.attribute: Ki (nM)

1) Cc1cccc(-n2nc(C(F)(F)F)cc2CNC(=O)C(C)c2cn(C)c3ccc(O)cc23)c1 (centres unmarked) [Example 5] ... 0.6
2) COc1cccc(-n2nc(C(F)(F)F)cc2CNC(=O)C(C)c2cn(C)c3ccccc23)c1 (centres unmarked) [Example 3] ... 49.8
3) COc1ccc2c(c1)c(C(C)C(=O)NCc1cc(C(C)(C)C)nn1-c1cccc(Cl)c1)cn2C (centres unmarked) [Example 14] ... 48.1
4) CC(C(=O)NCc1cc(C(C)(C)C)nn1-c1ccc(F)c(Cl)c1)c1cn(C)c2ccc(O)cc12 (centres unmarked) [Example 11] ... 0.7
5) COc1ccc2c(c1)c(CC(=O)NCc1cc(C(C)(C)C)nn1-c1cccc(Cl)c1)cn2C [Example 13] ... 33.3
6) CC(C(=O)NCc1cc(C(F)(F)F)nn1-c1cccc(Cl)c1)c1cn(C)c2ccc(O)cc12 (centres unmarked) [Example 10] ... 0.4
7) Cn1cc(CC(=O)NCc2cc(C(F)(F)F)nn2-c2cccc(Cl)c2)c2cc(O)ccc21 [Example 9] ... 0.25
8) Cn1cc(CC(=O)NCc2nc(C(C)(C)C)nn2-c2cccc(Cl)c2)c2cc(O)ccc21 [Example 18] ... 70.9
9) CC(C(=O)NCc1cc(C(C)(C)C)nn1-c1ccccn1)c1cn(C)c2ccc(O)cc12 (centres unmarked) [Example 6] ... 56.8
10) Cc1c(C(F)(F)F)nn(-c2cccc(Cl)c2)c1CNC(=O)C(C)c1cn(C)c2ccc(O)cc12 (centres unmarked) [Example 7] ... 0.4
11) CC(C(=O)NCc1cc(C(F)(F)F)nn1-c1ccccc1)c1cn(C)c2ccccc12 (centres unmarked) [Example 1] ... 42.1
12) CC(C(=O)NCc1cc(C(C)(C)C)nn1-c1cccc(Cl)c1)c1cn(C)c2ccccc12 (centres unmarked) [Example 2] ... 33.6
13) CC(C(=O)NCc1cc(C2CC2)nn1-c1cccc(Cl)c1)c1cn(C)c2ccc(O)cc12 (centres unmarked) [Example 12] ... 1.1
14) CC(C(=O)NCc1cc(C(F)(F)F)nn1-c1cccc(Cl)c1)c1cn(C)c2ccccc12 (centres unmarked) [Example 8] ... 6.4
